Test system: RPMI-8402
Protocol Notes: selective drug sensitivity score (sDSS, relative to normal bone marrow) (sDSS (score)); higher = more potent and effective on the cell line relative to normal bone marrow cells;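 further: ALL cell lines in 384-well plates, five doses spanning 10,000-fold, each plate scaled between vehicle and 100 µmol/L benzalkonium chloride controls, sDSS an adapted area-under-curve metric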
Run Parameters: 72 h
Think of 2 as a floor: if selective drug sensitivity score stands on it or above, it is satisfied; beneath it, not satisfied.

Nc1ncnc2c1c(COc1cccc(Cl)c1)nn2C1CCOCC1 (top concentration 10000 nM); not satisfied
O=C(Nc1ccncc1)C(=O)c1cn(Cc2ccc(Cl)cc2)c2ccccc12 [Indibulin] (top concentration 10000 nM); satisfied
C=CCc1cccc(/C=N/NC(=O)CN2CCN(Cc3ccccc3)CC2)c1O [PAC-1] (top concentration 10000 nM); not satisfied
Cn1nccc1Nc1nccc(-c2ccn([C@H](CO)c3ccc(Cl)c(F)c3)c(=O)c2)n1 [Ravoxertinib] (top concentration 10000 nM); not satisfied
CCc1cnn2c(NCc3ccc[n+]([O-])c3)cc(N3CCCC[C@H]3CCO)nc12 [Dinaciclib] (top concentration 1000 nM); not satisfied
COc1cccc(OCCCN)c1-c1cc(Nc2cnc(C#N)cn2)n[nH]1 [Prexasertib] (top concentration 10000 nM); satisfied

Pending compound:
-- ask Answer whether selective drug sensitivity score of CC1(COc2ccc3c(c2)ncn3-c2ccc3cccc(N4CCC(N)CC4)c3n2)COC1 [Crenolanib] (top concentration 10000 nM) is greater than or equal to 2.
-- reply not satisfied

====

Measured selective drug sensitivity score of individual entries
Test system: TMD5
Protocol Notes: selective drug sensitivity score (sDSS, relative to normal bone marrow) (sDSS (score)); higher = more potent and effective on the cell line relative to normal bone marrow cells
Run Parameters: 72 h
Just the number, please, no unit attached.

Answered cases to consult:
Cc1nc(-c2cn3c(n2)-c2ccc(-c4cnn(C(C)(C)C(N)=O)c4)cc2OCC3)n(C(C)C)n1 [Taselisib] (top concentration 1000 nM); -4.3
CC#CC(=O)N1CCC[C@H]1c1nc(-c2ccc(C(=O)Nc3ccccn3)cc2)c2c(N)nccn12 [Acalabrutinib] (top concentration 1000 nM); 5.9
COc1cc(N2CCC(N3CCN(C)CC3)CC2)ccc1Nc1ncnc(Nc2ccccc2S(=O)(=O)C(C)C)n1 [ASP3026] (top concentration 10000 nM); -1.84
Nc1ccn([C@@H]2O[C@H](CO)[C@@H](O)[C@@H]2O)c(=O)n1 [Cytarabine] (top concentration 10000 nM); -10
CN(C)CCOc1ccc(/C(=C(/CCCl)c2ccccc2)c2ccccc2)cc1 [Toremifene] (top concentration 10000 nM); 0.78

-- ask Please report selective drug sensitivity score for the following molecule: Cc1ccc(C(=O)Nc2cccc(C(F)(F)F)c2)cc1Nc1nc(-c2cccnc2)nc2c1cnn2C [NVP-BHG712] (top concentration 10000 nM)
-- reply 7.28

====

System: RCH-ACV
Protocol Notes: selective drug sensitivity score (sDSS, relative to normal bone marrow) (sDSS (score)); higher = more potent and effective on the cell line relative to normal bone marrow cells
Run Parameters: 72 h
Measured selective drug sensitivity score of individual entries
Just the number, please, no unit attached.

Cn1cnc2c(F)c(Nc3ccc(Br)cc3F)c(C(=O)NOCCO)cc21 [Binimetinib] (top concentration 1000 nM); -2.22
Cc1sc2c(c1C)C(c1ccc(Cl)cc1)=N[C@@H](CC(=O)Nc1ccc(O)cc1)c1nnc(C)n1-2 [Birabresib] (top concentration 10000 nM); 12
C[C@H]1CNCCCN1S(=O)(=O)c1cccc2cncc(F)c12 [Ripasudil] (top concentration 10000 nM); -0.22

Moving on to another compound below.
-- ask Lab note: record selective drug sensitivity score of Nc1cc(COc2c(Cl)cc(C[C@H](N)C(=O)O)cc2Cl)c2oc(-c3ccccc3)nc2c1 [JPH203] (top concentration 5000 nM) tested on RCH-ACV.
-- reply 4.5

====

System: MOLT-4
Protocol Notes: selective drug sensitivity score (sDSS, relative to normal bone marrow) (sDSS (score)); higher = more potent and effective on the cell line relative to normal bone marrow cells
Run Parameters: 72 h
Measured selective drug sensitivity score of individual entries
Just the number, please, no unit attached.

Answered cases to consult:
CC[C@H](C)C(=O)O[C@H]1C[C@H](O)C=C2C=C[C@H](C)[C@H](CC[C@@H](O)C[C@@H](O)CC(=O)O)[C@H]21 [Pravastatin] (top concentration 10000 nM); -0.66
COc1cccc(OCCCN)c1-c1cc(Nc2cnc(C#N)cn2)n[nH]1 [Prexasertib] (top concentration 10000 nM); 20.4
Cc1c(Cn2c(C)nc3c(C(=O)O)cc(N4CCOCC4)cc32)cccc1C(F)(F)F (top concentration 10000 nM); -0.02

-- ask Please report selective drug sensitivity score for the following molecule: CC(=O)Nc1cccc(-n2c(=O)n(C3CC3)c(=O)c3c(Nc4ccc(I)cc4F)n(C)c(=O)c(C)c32)c1 [Trametinib] (top concentration 250 nM)
-- reply -4.54

-- ask Please report selective drug sensitivity score for the following molecule: C=C1C[C@@H]2CC[C@@]34C[C@H]5O[C@H]6[C@@H](O3)[C@H]3O[C@H](CC[C@@H]3O[C@H]6[C@H]5O4)CC(=O)C[C@@H]3[C@@H](OC)[C@@H](C[C@H](O)CN)O[C@H]3C[C@H]3O[C@@H](CC[C@@H]1O2)C[C@@H](C)C3=C [Eribulin] (top concentration 1000 nM)
-- reply 23.3

====

System: MOLT-16
Protocol Notes: selective drug sensitivity score (sDSS, relative to normal bone marrow) (sDSS (score)); higher = more potent and effective on the cell line relative to normal bone marrow cells
Run Parameters: 72 h
Endpoint: selective drug sensitivity score
Just the number, please, no unit attached.

Answered cases to consult:
CNc1nc(-c2ccc3c(N)n[nH]c3c2)cc(N2C[C@@H](C(=O)NC3CCCCC3)CC[C@H]2C)n1 (top concentration 10000 nM); -0.14
CN1CCC(COc2cnc(-c3cccc(Cn4nc(-c5cccc(C#N)c5)ccc4=O)c3)nc2)CC1 [Tepotinib] (top concentration 1000 nM); -0.08
Cc1nc(-c2cn3c(n2)-c2ccc(-c4cnn(C(C)(C)C(N)=O)c4)cc2OCC3)n(C(C)C)n1 [Taselisib] (top concentration 1000 nM); 2.8
Cn1cncc1[C@@](N)(c1ccc(Cl)cc1)c1ccc2c(c1)c(-c1cccc(Cl)c1)cc(=O)n2C [Tipifarnib] (top concentration 10000 nM); 11.8
CNC(=O)c1cccc2cc(Oc3ccnc4cc(OCC5(N)CC5)c(OC)cc34)ccc12 [Lucitanib] (top concentration 10000 nM); 3.98

-- ask Please report selective drug sensitivity score for the following compound: NC(=S)N/N=C/c1ncccc1N [Triapine] (top concentration 10000 nM)
-- reply 4.68

====

Measured selective drug sensitivity score of individual entries
Test system: RPMI-8402
Protocol Notes: selective drug sensitivity score (sDSS, relative to normal bone marrow) (sDSS (score)); higher = more potent and effective on the cell line relative to normal bone marrow cells
Run Parameters: 72 h
Just the number, please, no unit attached.

NC[C@@](O)(c1ccc(Cl)cc1)c1ccc(-c2cn[nH]c2)cc1 (top concentration 10000 nM); 3.28
CCn1c(-c2nonc2N)nc2cnc(Oc3cccc(NC(=O)c4ccc(OCCN5CCOCC5)cc4)c3)cc21 (top concentration 10000 nM); 7.66
Cc1cc2c(C(=O)NC[C@H](C)c3ccccc3)c(O)c(O)cc2c(O)c1-c1c(C)cc2c(C(=O)NC[C@H](C)c3ccccc3)c(O)c(O)cc2c1O [Sabutoclax] (top concentration 25000 nM); 4.38
Cc1sc2c(c1C)C(c1ccc(Cl)cc1)=N[C@@H](CC(=O)Nc1ccc(O)cc1)c1nnc(C)n1-2 [Birabresib] (top concentration 10000 nM); 3.72
CC(C)C[C@H](NC(=O)CNC(=O)c1cc(Cl)ccc1Cl)B(O)O [Ixazomib] (top concentration 1000 nM); 6.56
Cc1ncc(-c2ccnc(Nc3ccc(S(C)(=O)=O)cc3)n2)n1C(C)C [AZD-5438] (top concentration 10000 nM); -0.76
CCCOc1ccn2c(C(C)=O)cc(-c3ccccc3S(C)(=O)=O)c2c1 [GSK2801] (top concentration 10000 nM); -0.16
Cc1cc2c(C(C)C)c(O)c(O)c(C=O)c2c(O)c1-c1c(C)cc2c(C(C)C)c(O)c(O)c(C=O)c2c1O [AT-101] (top concentration 100000 nM); 1.88
CCC(C)(C)C(=O)O[C@H]1C[C@@H](C)C=C2C=C[C@H](C)[C@H](CC[C@@H]3C[C@@H](O)CC(=O)O3)[C@H]21 [Simvastatin] (top concentration 10000 nM); 2.08

Moving on to another compound below.
-- ask Lab note: record selective drug sensitivity score of CNC(=O)c1ccc2cc([C@@]3(O)CCn4cncc43)ccc2c1 [Orteronel] (top concentration 10000 nM) tested on RPMI-8402.
-- reply 0

====

System: NALL-1
Protocol Notes: selective drug sensitivity score (sDSS, relative to normal bone marrow) (sDSS (score)); higher = more potent and effective on the cell line relative to normal bone marrow cells
Run Parameters: 72 h
Think of 9 as a floor: if selective drug sensitivity score stands on it or above, it is Fulfilled; beneath it, Not fulfilled.

CO[C@H]1C[C@@H]2CC[C@@H](C)[C@@](O)(O2)C(=O)C(=O)N2CCCC[C@H]2C(=O)O[C@H]([C@H](C)C[C@@H]2CC[C@@H](OP(C)(C)=O)[C@H](OC)C2)CC(=O)[C@H](C)/C=C(\C)[C@@H](O)[C@@H](OC)C(=O)[C@H](C)C[C@H](C)/C=C/C=C/C=C/1C [Ridaforolimus] (top concentration 100 nM); Not fulfilled
NS(=O)(=O)OC[C@@H]1C[C@@H](n2ccc3c(N[C@H]4CCc5ccccc54)ncnc32)C[C@@H]1O [Pevonedistat] (top concentration 10000 nM); Fulfilled
CC(C)Cn1cnc2c(N)nc3ccccc3c21 [Imiquimod] (top concentration 2500 nM); Not fulfilled
CC1=NN(c2ccc(C(=O)O)cc2)C(=O)C1=Cc1ccc(-c2cc(C)c(C)cc2[N+](=O)[O-])o1 [C646] (top concentration 25000 nM); Not fulfilled

Pending compound:
-- ask Answer whether selective drug sensitivity score of C[C@@H]1C[C@H]2[C@@H]3CCC4=CC(=O)C=C[C@]4(C)[C@@]3(F)[C@@H](O)C[C@]2(C)[C@@]1(O)C(=O)CO [Dexamethasone] (top concentration 10000 nM) is greater than or equal to 9.
-- reply Fulfilled
